meta.source: PubChem BioAssay (NCI)

Provide the reported log10(TGI) of each item.
- Tested on: LOX IMVI melanoma
- test: NCI tumour cell line growth inhibition, 48 h
Response schema: value (number) is log10 of TGI in units of µM.

A selection of reference data follows.
>>> observed_value("C#CCOc1cccc(Nc2ncnc3ccc(NC(=O)CCl)cc23)c1")
0.59
>>> observed_value("c1ccc(C[n+]2cccc(-c3cc4ccccc4[nH]3)c2)cc1")
1.58
>>> observed_value("S=c1sc2nc(Cl)nc(Cl)c2s1")
1.48
>>> observed_value("CC1OC(OC2C(O)COC(OC3C(C)OC(OC4C(OC(=O)[C@]56CCC(C)(C)C[C@@H]5C5=CCC7[C@@]8(C)C[C@H](O)[C@H](OC9OC(CO)C(O)C(OC%10OC(CO)C(O)C(O)C%10O)C9O)[C@@](C)(CO)[C@@H]8CC[C@@]7(C)[C@]5(C)CC6)OCC(O)C4O)C(O)C3O)C2O)C(O)C(O)C1O (stereo partly drawn)")
1.54

For the next question, use this compound.
Quick one: log10(TGI) for CCCCCCCN1C(=O)C(O)(c2ccc(C3(O)C(=O)N(CCCCCCC)c4ccccc43)s2)c2ccccc21 (stereo not drawn) ?
0.55

---

- Test system: OVCAR-8 ovarian
- test: NCI tumour cell line growth inhibition, 48 h
Can you tell me TGI for the items I'm about to list?

# batch: return TGI for each of the 2 compounds below
1. CCCCCCCCCCCCOC1C(CNC(=O)C2OC3OC(C)(C)OC3C2NC(=O)CN2CCCCCC2)OC2OC(C)(C)OC21 (configuration not stated)
2. Cc1cc(C)c(S(=O)(=O)ONC(=O)OC(C)(C)C)c(C)c1

1: 25.5 µM; 2: > 100 µM

# map each compound to its TGI
1. C/C(Cc1ccc(Cl)cc1)=C(/c1ccc(Cl)cc1)c1ccc(OCCN(C)C)cc1
2. Clc1nc2n(c1/C=C/c1cccs1)CCS2

1: 13.7 µM; 2: > 100 µM

Hey, can you go through the list below and give me TGI for every item?
1. CCOC(=O)Nc1ccc(-c2nc(-c3cccc(OC)c3)c(-c3ccnc(Br)c3)[nH]2)cc1
2. O=c1[nH]n(Cc2ccccn2)c2ccc([N+](=O)[O-])cc12
3. C[C@]12[C@@H]3CC[C@H]1[C@@H](OC(=O)Nc1cc([N+](=O)[O-])cc([N+](=O)[O-])c1)C(=O)N2CC3
4. CCCCC#CC#Cc1cccc(=O)o1
5. C=C1C(=O)O[C@H]2[C@H]1CC(=O)/C(C)=C/CC[C@@]1(C)O[C@@H]21
6. N#Cc1ccc(C(c2ccc(C#N)cc2)n2cncn2)cc1
7. Cn1c(=S)c2[nH]c(SCCN3CCCC3)nc2n(C)c1=O

1: > 100 µM; 2: > 100 µM; 3: > 100 µM; 4: 62.9 µM; 5: 7.47 µM; 6: > 5000 µM; 7: > 100 µM

---

- Tested on: SK-OV-3 ovarian
- test: NCI tumour cell line growth inhibition, 48 h
Please respond with reported log10(TGI) for every item in the list.
// do not treat as linear: log10 of TGI, unit µM

These solved cases illustrate the format of a correct answer.
>>> observed_value("Clc1nc2n(c1/C=C/c1cccs1)CCS2")
1.98
>>> observed_value("C/C=C/C(=O)N1C(=O)OC[C@@H]1c1ccccc1")
1.52
>>> observed_value("CN(CCCl)c1ccc(/C=C/C2=[N+](C)c3ccccc3C2(C)C)cc1")
0.73
>>> observed_value("CC(=O)OCC1O[C@@H]([S-])C(OC(C)=O)[C@H](OC(C)=O)[C@@H]1OC(C)=O.[Au+].c1ccc(CN2[CH-]N(Cc3ccccc3)C(c3ccccc3)=C2c2ccccc2)cc1")
1.01
>>> observed_value("O=C(OCc1ccc2c(Cl)cc(Cl)c(O)c2n1)c1cc2ccccc2[nH]1")
1.12
>>> observed_value("O=[N+]([O-])c1ccc(Sc2c3ccccc3nc3ccccc23)nc1")
1.25

The following compounds each have a reported value; give each one's log10(TGI).
1. S=c1sc2nc(Cl)nc(Cl)c2s1
2. COc1ccc(-c2c(-c3cc(OC)c4c(c3)OCO4)noc2N)cc1
3. CCC(C(=O)[O-])C(=O)[O-].CCC(C(=O)[O-])C(=O)[O-].N.N.NCCCCCCN.[Pt+4].[Pt+4]

1: 1.50; 2: 0.11; 3: 1.26

---

Assign TGI to each entry below.
- Tested on: NCI/ADR-RES ovarian
- test: NCI tumour cell line growth inhibition, 48 h

These recorded examples may help you get a feel for the data.
>>> observed_value("Nc1nc(Cl)c2nnn(CC3CCC(CO)C3)c2n1 (stereo not given)")
"> 100 µM"
>>> observed_value("c1ccc(Cn2c(-c3ccc(OC[C@H](C4CCNCC4)n4c(-c5ccccc5)nc5ccccc54)cc3)nc3ccccc32)cc1")
"> 80.7 µM"
>>> observed_value("COC(=O)[C@@H]1C[C@@H]2c3ccccc3N(S(=O)(=O)c3ccccc3)[C@@H]2N1C(=O)OC")
"> 100 µM"
>>> observed_value("Cc1c(C)c2c(c(N)c1C#N)C(=O)N(CCN1CCNCC1)C2=O")
"> 100 µM"

Please look at the following compound next.
What does the data say about its TGI? Entry: NC(N)=NCCCC(NC(=O)OCCCCCCn1ccc(N)nc1=O)C(=O)O (stereo not given)
> 100 µM

---

- System: SR leukemia
- test: NCI tumour cell line growth inhibition, 48 h; in the data active = GI50 below about 0.43 µM; inactive = the rest
Respond with a class label; see active, inactive

Give the logged outcome of this assay for the following compound: CC1=C[S+](c2ccccc2)c2cccc3cc4ccccc4c1c23 (stereo not given)
active

Could you do the same for Nc1c(C(=O)Nc2ccccc2F)sc2nc3c(cc12)C(=O)CCC3 , please?
inactive

How about this compound: CC(=O)[O][Hg][c]1ccccc1
active

---

- System: LOX IMVI melanoma
- test: NCI tumour cell line growth inhibition, 48 h; in the data active = GI50 below about 0.43 µM; inactive = the rest
Returns: one label drawn from class 1 (active), class 0 (inactive)

Please let me know the test result on file for CCCCC#CC#Cc1cccc(=O)o1 .
class 0

What do you get for CC1=C[S+](c2ccccc2)c2cccc3cc4ccccc4c1c23 (stereo not drawn) ?
class 0

Then CCCSC1=NC2C(N(CC)C(=O)N2CC)N1/N=C/C=C/c1ccccc1[N+](=O)[O-] (stereo not drawn) ?
class 0

Please do the same for O=C(OCc1ccc2c(Cl)cc(Cl)c(O)c2n1)c1cc2ccccc2[nH]1 as well.
class 1

Same for C#CCOc1cccc(Nc2ncnc3ccc(NC(=O)CCl)cc23)c1
class 1

Item: O=C(c1ccccc1)c1nc2ccc(C(F)(F)F)cc2[n+]([O-])c1C(F)(F)F
class 0

And what about the compound COc1ccc(C(=O)COc2cccc(/C=C3\CSc4ccc(C)cc4C3=O)c2)cc1 ?
class 0

Likewise for CS(=O)(=O)CCNCc1ccc(-c2ccc3ncnc(Nc4ccc(OCc5ccccc5)c(Cl)c4)c3c2)o1 ?
class 0

---

Target or system U251 CNS; recorded quantity GI50.

Worked cases, answers included:
>>> observed_value("CC(=O)[O][Hg][c]1ccccc1")
"453 nM"
>>> observed_value("CCOC(=O)Nc1ccc(-c2nc(-c3cccc(OC)c3)c(-c3ccnc(Br)c3)[nH]2)cc1")
"2440 nM"
>>> observed_value("CCCCCCCCCCCCOC1C(CNC(=O)C2OC3OC(C)(C)OC3C2NC(=O)CN2CCCCCC2)OC2OC(C)(C)OC21 (stereo not given)")
"4910 nM"

Look up GI50 for the entries below, preserving their order.
1. Nc1nnc(Cn2c(-c3ccccc3)nc3ccc(Br)cc3c2=O)s1
2. C=C(C)[C@@H]1CC[C@]2(COC3CCCCO3)CC[C@]3(C)[C@H](CC[C@@H]4[C@@]5(C)C=C(C=O)C(=O)C(C)(C)[C@@H]5CC[C@]43C)[C@@H]12 (stereo not given in full)

["38400 nM", "1180 nM"]

For each of the items listed, what is its GI50?
1. COc1ccc(-c2c(-c3cc(OC)c4c(c3)OCO4)noc2N)cc1
2. O=C(c1ccccc1)c1nc2ccc(C(F)(F)F)cc2[n+]([O-])c1C(F)(F)F
3. CC(=O)OCC1O[C@@H]([S-])C(OC(C)=O)[C@H](OC(C)=O)[C@@H]1OC(C)=O.[Au+].c1ccc(CN2[CH-]N(Cc3ccccc3)C(c3ccccc3)=C2c2ccccc2)cc1
4. Cc1nc2n(c(=O)c1CCN1CCC(c3noc4cc(F)ccc34)CC1)CCCC2
5. Nc1c(C(=O)Nc2ccccc2F)sc2nc3c(cc12)C(=O)CCC3
6. CCCCn1sc(=O)n(Cc2ccc(CNC(=O)OCc3ccc4c(Br)cc(Br)c(O)c4n3)cc2)c1=O

["38.2 nM", "50300 nM", "1610 nM", "> 50000 nM", "1230 nM", "659 nM"]

// each listed compound needs a value for GI50
1. CCC1CCc2nc3sc(C(=O)Nc4ccccc4C)c(N)c3cc2C1 (stereo not given)
2. COc1cnc2c(c1)C(=O)c1c-2n(CCCN2CCCC2)c(=O)c2cc(F)ccc12
3. O=C(OCc1ccc2c(Cl)cc(Cl)c(O)c2n1)c1cc2ccccc2[nH]1
4. CS(=O)(=O)CCNCc1ccc(-c2ccc3ncnc(Nc4ccc(OCc5ccccc5)c(Cl)c4)c3c2)o1

1. 648 nM
2. 116 nM
3. 1610 nM
4. 5020 nM
